target: Adrenergic receptor alpha-1 (Rattus norvegicus, UniProt P15823+P23944+P43140); assay: Displacement of [3H]prazosin from alpha1 adrenergic receptor in rat striatum after 30 mins by liquid scintillation counting; details: in the assay text read “rat brain cortex” for “rat striatum”
Consider the following molecules; for each one, report its Ki.
One number for each entry, in µM.

smiles_record=CCOc1ccccc1N1CCN(CCCN/C(=N\C#N)c2ccncc2)CC1 unit_abbreviation=µM val=0.19

Proceeding to the next molecule to report its Ki.
Look up and state reported Ki for N#C/N=C(\NCCCN1CCN(c2cccc(Cl)c2)CC1)c1ccncc1
0.912

---

target: 5-hydroxytryptamine receptor 2C (Rattus norvegicus); assay: Displacement of [3H]mesulergine from 5-HT2C receptor in Sprague-Dawley rat brain cortex after 15 mins
Sequence (P08909 whole entry): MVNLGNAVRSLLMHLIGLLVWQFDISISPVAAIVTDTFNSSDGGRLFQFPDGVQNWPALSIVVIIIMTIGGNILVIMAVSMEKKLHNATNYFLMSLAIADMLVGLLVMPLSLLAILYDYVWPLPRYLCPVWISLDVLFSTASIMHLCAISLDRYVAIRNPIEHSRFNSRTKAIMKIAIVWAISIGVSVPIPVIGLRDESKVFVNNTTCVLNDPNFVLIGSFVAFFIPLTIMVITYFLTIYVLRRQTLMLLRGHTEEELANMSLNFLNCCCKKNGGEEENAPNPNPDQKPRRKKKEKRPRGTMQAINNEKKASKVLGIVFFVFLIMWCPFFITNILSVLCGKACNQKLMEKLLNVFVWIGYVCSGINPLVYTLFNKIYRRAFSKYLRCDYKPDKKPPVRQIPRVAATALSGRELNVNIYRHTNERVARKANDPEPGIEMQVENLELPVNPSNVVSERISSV
assay.metric: Ki

smiles_record=CCOCCN1CCN(CCCN/C(=N\C#N)c2ccncc2)CC1 system_tested="5-hydroxytryptamine receptor 2C (Rattus norvegicus)" val="Not Active"
smiles_record=Cc1cccc(N2CCN(CCCN/C(=N\C#N)c3ccncc3)CC2)c1C system_tested="5-hydroxytryptamine receptor 2C (Rattus norvegicus)" val="Not Active"
smiles_record=N#C/N=C(\NCCCN1CCN(Cc2ccc3c(c2)OCO3)CC1)c1ccncc1 system_tested="5-hydroxytryptamine receptor 2C (Rattus norvegicus)" val="Not Active"

---

Consider the following compounds; for each one, report its Ki.
molecular target: 5-hydroxytryptamine receptor 1A (Rattus norvegicus, UniProt P19327); experiment: Displacement of [3H]-8-OH-DPAT from 5-HT1A receptor in Sprague-Dawley rat brain cortex after 30 mins liquid scintillation spectrometer; type: tissue-based, Cerebral cortex; conditions: read-out: Ki
Sequence (P19327 whole entry): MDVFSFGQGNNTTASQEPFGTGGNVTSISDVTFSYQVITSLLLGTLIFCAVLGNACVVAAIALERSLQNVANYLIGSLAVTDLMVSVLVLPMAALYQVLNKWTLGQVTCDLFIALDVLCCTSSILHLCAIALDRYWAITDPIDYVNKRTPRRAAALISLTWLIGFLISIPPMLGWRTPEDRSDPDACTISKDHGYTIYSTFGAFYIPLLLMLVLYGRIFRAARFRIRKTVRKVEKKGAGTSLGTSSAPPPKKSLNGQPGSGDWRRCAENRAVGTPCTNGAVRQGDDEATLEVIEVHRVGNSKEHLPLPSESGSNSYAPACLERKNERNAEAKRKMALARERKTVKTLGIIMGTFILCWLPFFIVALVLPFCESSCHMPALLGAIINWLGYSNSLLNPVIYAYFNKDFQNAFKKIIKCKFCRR
One number for each entry, in nM.

Some solved entries appear below for comparison.
smiles_record=COc1ccccc1N1CCN(CCCN/C(=N\C#N)c2ccncc2)CC1 val=1.47
smiles_record=N#C/N=C(\NCCCN1CCN(c2ncccn2)CC1)c1ccncc1 val=172
smiles_record=N#C/N=C(\NCCCN1CCN(c2ccccn2)CC1)c1ccncc1 val=0.038
smiles_record=N#C/N=C(\NCCCN1CCN(c2cccc(C(F)(F)F)c2)CC1)c1ccncc1 val=141
smiles_record=N#C/N=C(\NCCCN1CCN(c2ccccc2Cl)CC1)c1ccncc1 val=166

State the recorded Ki for every item in the following list.
1. CCOc1ccccc1N1CCN(CCCN/C(=N\C#N)c2ccncc2)CC1
2. Cc1cccc(N2CCN(CCCN/C(=N\C#N)c3ccncc3)CC2)c1C
3. N#C/N=C(\NCCCN1CCN(c2cccc(Cl)c2)CC1)c1ccncc1

21.3
101
6.17

---

Consider the following compounds; for each one, report its Ki.
molecular target: 5-hydroxytryptamine receptor 2A (Rattus norvegicus); assay: Displacement of [3H]ketanserin hydrochloride from 5-HT2A receptor in Sprague-Dawley rat brain cortex after 15 mins; details: read-out: Ki

Some solved entries appear below for comparison.
smiles_record=N#C/N=C(\NCCCN1CCN(C(=O)c2ccco2)CC1)c1ccncc1 val="> 10 µM"
smiles_record=COc1ccccc1N1CCN(CCCN/C(=N\C#N)c2ccncc2)CC1 val="> 10 µM"
smiles_record=N#C/N=C(\NCCCN1CCN(c2ccccc2C#N)CC1)c1ccncc1 val="> 10 µM"
smiles_record=N#C/N=C(\NCCCN1CCN(Cc2ccc3c(c2)OCO3)CC1)c1ccncc1 val="> 10 µM"
smiles_record=N#C/N=C(\NCCCN1CCN(c2cccc(C(F)(F)F)c2)CC1)c1ccncc1 val="0.0321 µM"

State the recorded Ki for every item in the following list.
1. COCCN1CCN(CCCN/C(=N\C#N)c2ccncc2)CC1
2. Cc1cccc(N2CCN(CCCN/C(=N\C#N)c3ccncc3)CC2)c1C
3. N#C/N=C(\NCCCN1CCN(c2cccc(Cl)c2)CC1)c1ccncc1

1: > 10 µM; 2: > 10 µM; 3: > 10 µM

---

Consider the following molecules; for each one, report its Ki.
biological target: Adrenergic receptor alpha-2 (Rattus norvegicus, UniProt P22086+P19328+P22909); assay: Displacement of [3H]yohimbine from alpha 2 adrenergic receptor in rat brain cortex after 30 mins by liquid scintillation counting; assay type: tissue-based
One number for each entry, in µM.

smiles_record=CCOc1ccccc1N1CCN(CCCN/C(=N\C#N)c2ccncc2)CC1 assay_metric=Ki val=0.516

Proceeding to the next molecule to report its Ki.
Look up and state reported Ki for COc1ccccc1N1CCN(CCCN/C(=N\C#N)c2ccncc2)CC1
2.57

---

molecular target: 5-hydroxytryptamine receptor 2A (Rattus norvegicus, UniProt P14842); assay: Displacement of [3H]ketanserin hydrochloride from 5-HT2A receptor in Sprague-Dawley rat brain cortex after 15 mins; details: read-out: Ki
Sequence (P14842 whole entry): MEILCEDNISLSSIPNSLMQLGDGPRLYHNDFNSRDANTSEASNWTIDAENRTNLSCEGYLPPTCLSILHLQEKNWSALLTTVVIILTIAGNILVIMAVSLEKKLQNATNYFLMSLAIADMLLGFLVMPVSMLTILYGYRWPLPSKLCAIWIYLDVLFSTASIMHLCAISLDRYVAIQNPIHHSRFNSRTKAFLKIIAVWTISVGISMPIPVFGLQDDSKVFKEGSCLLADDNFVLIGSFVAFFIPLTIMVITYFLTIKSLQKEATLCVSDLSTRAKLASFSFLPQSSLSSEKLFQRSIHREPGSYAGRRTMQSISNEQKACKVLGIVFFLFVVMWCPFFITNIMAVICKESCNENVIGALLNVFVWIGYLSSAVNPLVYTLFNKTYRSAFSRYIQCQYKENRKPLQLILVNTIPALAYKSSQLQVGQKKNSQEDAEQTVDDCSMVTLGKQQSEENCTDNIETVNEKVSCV
assay.metric: Ki

Some solved entries appear below for comparison.
smiles_record=COc1ccc(N2CCN(CCCN/C(=N\C#N)c3ccncc3)CC2)cc1 val="> 10 µM"
smiles_record=CCOc1ccccc1N1CCN(CCCN/C(=N\C#N)c2ccncc2)CC1 val="1.9 µM"

Proceeding to the next compound to report its Ki.
Look up and state reported Ki for N#C/N=C(\NCCCN1CCN(c2ccccc2Cl)CC1)c1ccncc1
> 10 µM
